Kd: recorded values
- target-entity: T1, Recombinant WNV-E protein ectodomain (West Nile virus, UniProt Q9Q6P4 291-700)
- T1 construct: extracellular domain; also called rWNV-E; WNE
- T1 sequence (looked up): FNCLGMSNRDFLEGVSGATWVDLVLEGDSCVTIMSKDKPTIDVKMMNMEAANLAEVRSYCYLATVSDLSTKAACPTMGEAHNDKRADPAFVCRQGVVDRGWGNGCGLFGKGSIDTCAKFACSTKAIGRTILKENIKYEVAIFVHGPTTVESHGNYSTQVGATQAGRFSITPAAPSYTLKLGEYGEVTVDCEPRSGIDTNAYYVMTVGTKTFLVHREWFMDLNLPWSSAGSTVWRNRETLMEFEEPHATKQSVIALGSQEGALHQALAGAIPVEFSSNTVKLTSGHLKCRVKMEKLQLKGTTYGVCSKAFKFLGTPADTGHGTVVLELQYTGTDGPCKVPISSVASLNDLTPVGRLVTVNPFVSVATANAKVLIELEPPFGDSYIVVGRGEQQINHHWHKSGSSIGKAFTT
- protocol-text: SPR (Biacore 3000); scFv on NTA chip via His tag, rWNV-E in solution
API: value field is a number in nM; no unit string.

binder | outcome-measure | units-label | value
scFv 11 (scFv, also called 11 scFv; antibody 11) scFv: MAQVQLVQSGAEVKKPGASVKVSCKASGYTFSGYSTHWLRQVPGQGLEWIGWDNPSSGDTTYAENFRGRVTLTRDTSITTDYLEVRGLRSDDTAVYYCARGGDDYSFDHWGQGTLVTVSSGGGGSGGGGSGGGGSSSELTQDPAVSVALGQTVRITCRGDSLRSYYASWYQQKPGQAPVLVIYGENNRPSGIPDRFSGSSSGDTASLTITGAQAEDEADYYCNSRDSSDHLLLFGGGTKLTVLGQPKATPSAAAEQKLISEEDL | Kd | nM | 4.92

Turning now to a further record.
Q. Quick one: Kd of scFv 79 (scFv, also called 79 scFv; antibody 79) scFv: MAQVQLVQSGAEVKKPGSSVKVSCKASGGTFSSYAISWVRQAPGQGLEWMGWMNSNTGDTGYAQKFQGRVTMTRNTSTSTAYMELSSLRSEDTAVYYCAKISNYHYYAMDVWGQGTLVTVSSGGGGSGGGGSGGGGSLPVLTQPPSASGTSGQTVTISCSGGSSNIGSHLVTWYQQFPGTAPKVLIHTNDQRPSGVPDRISGSKSGTSASLAISGLQSDDEGDYYCAAWDDSLNGYVFGTGTKVTVLGQPKATPSAAAEQKLISEEDL ?
A. 5.35
